Test system: JFH-1 genotype 2a infectious virus (HCVcc)
procedure_summary: HCV (HCVcc) infection / viral entry inhibition on Huh7.5.1 cells
Format: cell-based, Hepatitis C virus
condition_notes: 3 h incubation on Huh7.5.1 cells

molecule	assayed_target	TI (CC50/EC50)
COc1ccc([C@@]23Oc4cc(OC)cc(OC)c4[C@]2(O)c2nc4n(c(=O)c2[C@H]3c2ccccc2)CCC4)cc1 [(−)-aglaroxin C]	JFH-1 genotype 2a infectious virus (HCVcc)	60^1
COc1ccc([C@]23Oc4cc(OC)cc(OC)c4[C@@]2(O)c2nc4n(c(=O)c2[C@@H]3c2ccccc2)CCC4)cc1 [(+)-aglaroxin C]	JFH-1 genotype 2a infectious virus (HCVcc)	5^1
COc1ccc([C@@]23Oc4cc(OC)cc(OC)c4[C@]2(O)[C@H](O)[C@H](C(=O)N(C)C)[C@H]3c2ccccc2)cc1 [(−) Roc-A]	JFH-1 genotype 2a infectious virus (HCVcc)	50
COc1ccc([C@@]23Oc4cc(OC)cc(OC)c4[C@]2(O)c2nc4n(c(=O)c2[C@H]3c2ccccc2)CCC4)cc1 (racemic) [(±) aglaroxin C (C10), aglaroxin C]	JFH-1 genotype 2a infectious virus (HCVcc)	100

The reported numbers originate from patent US10085988B1.
